// reported Relative IC50 (fold of chimeric PTA-2357) for each item listed
Target under test: antigen on NCI-H187 classic small cell lung carcinoma cells (ATCC Number: CRL-5804) recognised by PTA-2357
Protocol notes: competition flow cytometry on NCI-H187 cells against mouse PTA-2357; CHO-K1-derived

Solved cases (2 shown):
PTA-2357 VH3/VK1 IgG1 antibody (antibody, V domains shown) VH: QVQLVQSGAEVKKPGASVKVSCKGSGYPFTDYTIHWVRQAPGQGLEWIGHISTYSGNTNNNQKFKGRATMTVDKSTSTAYMELRSLRSDDTTVYYCARGDYYGSFYKFEYWGQGTTVTVSS VL: DIKMTQSPSSLSASVGDRVTITCGASENIYGALNWFQRKQGKAPKLLIYGATNLADGMPSRFSGSGSGRDFTLTISSLQPEDFATYFCQNVLSIPYTFGQGTQLEIK : > 3
PTA-2357 VH1/VK2 IgG1 antibody (antibody, V domains shown) VH: QVQLVQSGPELKKPGASVKVSCKGSGYPFTDYTIHWVRQAHGQGLEWIGHISTYSGNTNNNQKFKGRATMTVDKSTSTAYMELRSLRSDDSTVYYCARGDYYGSFYKFEYWGQGTTVTVSS VL: DIKMTQSPSSLSASVGDRVTITCGASENIYGALNWFQRKPGKAPKLLIYGATNLADGMPSRFSGSGSGRDFTLTISSLQPEDFATYFCQNVLSIPYTFGQGTKLEIK : 1.2

Now, please, on to the next binder.
// Relative IC50 (fold of chimeric PTA-2357) value for PTA-2357 VH2/VK1 IgG1 antibody (antibody, V domains shown) VH: QVQLVQSGAEVKKPGASVKVSCKGSGYPFTDYTIHWVRQAHGQGLEWIGHISTYSGNTNNNQKFKGRATMTVDKSTSTAYMELRSLRSDDSTVYYCARGDYYGSFYKFEYWGQGTTVTVSS VL: DIKMTQSPSSLSASVGDRVTITCGASENIYGALNWFQRKQGKAPKLLIYGATNLADGMPSRFSGSGSGRDFTLTISSLQPEDFATYFCQNVLSIPYTFGQGTQLEIK : > 3

Hello, the source for this data is patent US20210371516A1, in case you need it.
